relative cell viability reference
System: HL-1
Assay: relative cell viability (CellTiter-Glo) vs DMSO control (% of DMSO control); higher = more viable cells
Conditions: oxygen condition: normoxia 72 h; 1000 nM
Counter-ions that a name gives are not always drawn.

| MOLECULE | TARGET_UNDER_TEST | relative cell viability |
| --- | --- | --- |
| OC(CCN1CCCCC1)(c1ccccc1)C1CC2C=CC1C2 (stereo not drawn) [Biperiden HCl] | HL-1 | 106 |
| CCCCCN(C)CCC(O)(P(=O)(O)O)P(=O)(O)O [Ibandronate sodium] | HL-1 | 92.6 |
| OC[C@@H](O)[C@@H](O)[C@H](O)[C@@H](O)CO | HL-1 | 97.9 |
